- measured-on: CDK4 (Homo sapiens, UniProt P11802)
- Sequence (P11802 whole entry): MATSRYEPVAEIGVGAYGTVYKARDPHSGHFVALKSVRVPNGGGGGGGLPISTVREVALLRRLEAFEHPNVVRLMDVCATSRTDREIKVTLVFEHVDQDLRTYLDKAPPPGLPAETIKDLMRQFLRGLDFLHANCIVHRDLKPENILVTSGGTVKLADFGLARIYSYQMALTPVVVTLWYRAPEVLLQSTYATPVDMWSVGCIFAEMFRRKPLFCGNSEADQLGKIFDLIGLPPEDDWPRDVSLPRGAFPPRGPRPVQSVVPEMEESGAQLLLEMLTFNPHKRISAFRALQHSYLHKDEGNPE
- run-description: CDK4 protein degradation activity by Western blot in MCF-7 cells
- Type: cell-based
- Parameters: host or cells: MCF-7
- experimental-parameters: MCF7, compound 1 μM, 24 hours
readout-kind: Dmax at 1 µM

Some molecules with known Dmax at 1 µM results, for comparison:
molecule: CC(=O)c1c(C)c2cnc(Nc3ccc(N4CCN(CCCCCCOc5cccc6c5C(=O)N(C5CCC(=O)NC5=O)C6=O)CC4)cn3)nc2n(C2CCCC2)c1=O (stereo not shown)
Dmax at 1 µM: 50 to 90%
--
molecule: CC(=O)c1c(C)c2cnc(Nc3ccc(N4CCN(CCCCCNC(=O)COc5cccc6c5C(=O)N(C5CCC(=O)NC5=O)C6=O)CC4)cn3)nc2n(C2CCCC2)c1=O (stereo not shown)
Dmax at 1 µM: > 90%
--
molecule: CN(C)C(=O)c1cc2cnc(Nc3ccc(N4CCN(CCOCCOCCOCCOc5cccc6c5C(=O)N(C5CCC(=O)NC5=O)C6=O)CC4)cn3)nc2n1C1CCCC1 (stereo not shown)
Dmax at 1 µM: 50 to 90%

Tested on CDK4 (Homo sapiens, UniProt P11802): CC(=O)c1c(C)c2cnc(Nc3ccc(N4CCN(CCOCCOCCOCCNc5cccc6c5C(=O)N(C5CCC(=O)NC5=O)C6=O)CC4)cn3)nc2n(C2CCCC2)c1=O (stereo not shown) . Observed Dmax at 1 µM: 50 to 90%

* * *

Reported Dmax at 1 µM values follow for various molecules
- measured-on: CDK6 (Homo sapiens, UniProt Q00534)
- Sequence (Q00534 whole entry): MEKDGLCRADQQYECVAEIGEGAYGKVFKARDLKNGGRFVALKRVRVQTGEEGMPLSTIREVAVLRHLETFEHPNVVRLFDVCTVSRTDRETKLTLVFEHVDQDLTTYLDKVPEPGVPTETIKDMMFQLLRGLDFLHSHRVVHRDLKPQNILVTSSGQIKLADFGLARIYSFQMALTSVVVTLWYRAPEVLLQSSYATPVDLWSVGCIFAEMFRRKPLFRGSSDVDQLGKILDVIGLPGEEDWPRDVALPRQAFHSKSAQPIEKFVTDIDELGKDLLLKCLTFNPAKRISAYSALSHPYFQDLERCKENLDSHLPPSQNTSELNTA
- run-description: CDK6 protein degradation activity by Western blot in MCF-7 cells
- Format: cell-based
- Parameters: host or cells: MCF-7
- experimental-parameters: MCF7, compound 1 μM, 24 hours

molecule: CC(=O)c1c(C)c2cnc(Nc3ccc(N4CCN(CCOCCOCCOCCNc5cccc6c5C(=O)N(C5CCC(=O)NC5=O)C6=O)CC4)cn3)nc2n(C2CCCC2)c1=O (stereo not drawn)
measured-on: CDK6 (Homo sapiens, UniProt Q00534)
Dmax at 1 µM: 50 to 90%
--
molecule: CN(C)C(=O)c1cc2cnc(Nc3ccc(N4CCN(CCOCCOCCOCCNc5cccc6c5C(=O)N(C5CCC(=O)NC5=O)C6=O)CC4)cn3)nc2n1C1CCCC1 (stereo not drawn)
measured-on: CDK6 (Homo sapiens, UniProt Q00534)
Dmax at 1 µM: > 90%
--
molecule: CN(C)C(=O)c1cc2cnc(Nc3ccc(N4CCN(CCCCCNC(=O)COc5cccc6c5C(=O)N(C5CCC(=O)NC5=O)C6=O)CC4)cn3)nc2n1C1CCCC1 (stereo not drawn)
measured-on: CDK6 (Homo sapiens, UniProt Q00534)
Dmax at 1 µM: 50 to 90%

Briefly, Dmax at 1 µM measured for CC(=O)c1c(C)c2cnc(Nc3ccc(N4CCN(CCCCCNC(=O)COc5cccc6c5C(=O)N(C5CCC(=O)NC5=O)C6=O)CC4)cn3)nc2n(C2CCCC2)c1=O (stereo not drawn) : > 90%

What the record says about CN(C)C(=O)c1cc2cnc(Nc3ccc(N4CCN(CCCCCC(=O)Nc5cccc6c5C(=O)N(C5CCC(=O)NC5=O)C6=O)CC4)cn3)nc2n1C1CCCC1 (stereo not drawn) : Dmax at 1 µM is 50 to 90%

The molecule listed as CC(=O)c1c(C)c2cnc(Nc3ccc(N4CCN(CCCCCCCCOc5cccc6c5C(=O)N(C5CCC(=O)NC5=O)C6=O)CC4)cn3)nc2n(C2CCCC2)c1=O (stereo not drawn) has a reported Dmax at 1 µM of 50 to 90%

Sure, the documented Dmax at 1 µM for CC(=O)c1c(C)c2cnc(Nc3ccc(N4CCN(CCOCCCNc5cccc6c5C(=O)N(C5CCC(=O)NC5=O)C6=O)CC4)cn3)nc2n(C2CCCC2)c1=O (stereo not drawn) is 50 to 90%

The reported value for CC(=O)c1c(C)c2cnc(Nc3ccc(N4CCN(CCCOCCNc5cccc6c5C(=O)N(C5CCC(=O)NC5=O)C6=O)CC4)cn3)nc2n(C2CCCC2)c1=O (stereo not drawn) in terms of Dmax at 1 µM is 50 to 90%

Documented Dmax at 1 µM of CC(=O)c1c(C)c2cnc(Nc3ccc(N4CCN(CCCCOc5cccc6c5C(=O)N(C5CCC(=O)NC5=O)C6=O)CC4)cn3)nc2n(C2CCCC2)c1=O (stereo not drawn) : > 90%

The value of Dmax at 1 µM measured for the molecule CN(C)C(=O)c1cc2cnc(Nc3ccc(N4CCN(CCOCCNC(=O)COc5cccc6c5C(=O)N(C5CCC(=O)NC5=O)C6=O)CC4)cn3)nc2n1C1CCCC1 (stereo not drawn) turned out to be 50 to 90%

Entry CC(=O)c1c(C)c2cnc(Nc3ccc(N4CCN(CCOCCOCCOc5cccc6c5C(=O)N(C5CCC(=O)NC5=O)C6=O)CC4)cn3)nc2n(C2CCCC2)c1=O (stereo not drawn) ; Dmax at 1 µM = 50 to 90%

Reported Dmax at 1 µM for CN(C)C(=O)c1cc2cnc(Nc3ccc(N4CCN(CCOCCOCCOCCOc5cccc6c5C(=O)N(C5CCC(=O)NC5=O)C6=O)CC4)cn3)nc2n1C1CCCC1 (stereo not drawn) was 50 to 90%

Sample CN(C)C(=O)c1cc2cnc(Nc3ccc(N4CCN(CCCNC(=O)COc5cccc6c5C(=O)N(C5CCC(=O)NC5=O)C6=O)CC4)cn3)nc2n1C1CCCC1 (stereo not drawn) ; Dmax at 1 µM observed: 50 to 90%

Given item CN(C)C(=O)c1cc2cnc(Nc3ccc(N4CCN(CCOCCOCCNc5cccc6c5C(=O)N(C5CCC(=O)NC5=O)C6=O)CC4)cn3)nc2n1C1CCCC1 (stereo not drawn) , the value recorded as its Dmax at 1 µM is 50 to 90%

Reported Dmax at 1 µM ( CC(=O)c1c(C)c2cnc(Nc3ccc(N4CCN(CCCCCCNc5cccc6c5C(=O)N(C5CCC(=O)NC5=O)C6=O)CC4)cn3)nc2n(C2CCCC2)c1=O (stereo not drawn) ) = 50 to 90%

# molecule CC(=O)c1c(C)c2cnc(Nc3ccc(N4CCN(CCOCCOCCOCCOc5cccc6c5C(=O)N(C5CCC(=O)NC5=O)C6=O)CC4)cn3)nc2n(C2CCCC2)c1=O (stereo not drawn) ; its Dmax at 1 µM = 50 to 90%

Reported Dmax at 1 µM for CC(=O)c1c(C)c2cnc(Nc3ccc(N4CCN(CCCCCCOc5cccc6c5C(=O)N(C5CCC(=O)NC5=O)C6=O)CC4)cn3)nc2n(C2CCCC2)c1=O (stereo not drawn) was 50 to 90%

For this molecule ( CN(C)C(=O)c1cc2cnc(Nc3ccc(N4CCN(CCOCCOCCOc5cccc6c5C(=O)N(C5CCC(=O)NC5=O)C6=O)CC4)cn3)nc2n1C1CCCC1 (stereo not drawn) ), measured Dmax at 1 µM is 50 to 90%
